Entry source: the array DNA melting data of Ke et al. (doi:10.1101/2024.01.08.574731)

- experimentalDetails: folding enthalpy; higher = less favourable; fluorescence melt of hairpins on a sequencing array, two-state fit
- appliedConditions: sodium 0.088 M
parameterMeasured: folding enthalpy (kcal/mol)
State just the number; it will be interpreted in kcal/mol.

# count of solved cases: 10
GGAGTCGAAAGACCTTCC ((((((....)))..))) ... -22.5
GAATTGCGAAAGCATTTC (((.(((....))).))) ... -21.7
GACGACACGAAAGTGGTC (((..(((....)))))) ... -15.3
GATCGCCATTGCGATC ((((((....)))))) ... -38
GCGCGCGGAAACGCACGC (((.(((....))).))) ... -32.6
GCTTTCGAAAGAAGGAGC ((((((....)))..))) ... -17.8
GTCGTCGAAAGACGGAC ((((((....))).))) ... -13.6
GTGAGCGAAAGCTGCAC ((((((....))).))) ... -13.8
GCATCGGGAAACCAATGC ((((.((....)).)))) ... -29
GCATCACGAAAGTGGTGC (((.(((....))).))) ... -37.8

Request: Return folding enthalpy (reported value) for this sequence: GAGTTAGGAAACTAATTC ((.((((....)))).))
Result: -23.9

Request: Return folding enthalpy (reported value) for this sequence: GATCTATGCGTAGATC ((((((....))))))
Result: -41.5

Request: Return folding enthalpy (reported value) for this sequence: GCGTGCTCGAAAGAGCGC (((..(((....))))))
Result: -10.2

Request: Return folding enthalpy (reported value) for this sequence: GGTCCCGAAAGGGACACC ((((((....)))..)))
Result: -8.21

Request: Return folding enthalpy (reported value) for this sequence: GGATTAGGAAACTAACCC ((.((((....)))).))
Result: -17.3

Request: Return folding enthalpy (reported value) for this sequence: GTGTTCGAAAGAAGCAC ((((((....))).)))
Result: -21.8

Request: Return folding enthalpy (reported value) for this sequence: GTGGTAGAAATACCAC ((((((....))))))
Result: -36.1

Request: Return folding enthalpy (reported value) for this sequence: GCCGACGAAAGTCAGGC ((((((....))).)))
Result: -39.5

Request: Return folding enthalpy (reported value) for this sequence: GGATACGAAAGTAATTCC ((((((....)))..)))
Result: -12

Request: Return folding enthalpy (reported value) for this sequence: GATCAACTTTTGATC ((((((...))))))
Result: -30.7

Request: Return folding enthalpy (reported value) for this sequence: GATCAACCGTTGATC ((((((...))))))
Result: -38.1

Request: Return folding enthalpy (reported value) for this sequence: GTAGCCACGAAAGTGTAC (((..(((....))))))
Result: -9.72

Request: Return folding enthalpy (reported value) for this sequence: GATCAGATACCTGATC ((((((....))))))
Result: -36.7

Request: Return folding enthalpy (reported value) for this sequence: GGCTTTGGAAACAAAGCC (((((((....)))))))
Result: -34.1

Request: Return folding enthalpy (reported value) for this sequence: GATCTTAACTAAGATC ((((((....))))))
Result: -32.5
